System: Staphylococcus aureus
Test: Antibacterial activity against methicillin-resistant Staphylococcus aureus N315 measured by Muller-Hinton broth based microdilution assay
Type: functional
measuredQuantity: MIC (µg/mL)
Numeric answer only, unit µg/mL assumed.

// solved cases for MIC follow
{"columns": ["substanceSmiles", "testedOn", "MIC (µg/mL)"],
 "data": [
  ["O=C1c2cccc3c(N/N=C/c4cccc(F)c4)ccc(c23)C(=O)N1C(CO)CO", "Staphylococcus aureus", 32],
  ["CCn1c2ccccc2c2cc(/C=N/Nc3ccc4c5c(cccc35)C(=O)N(C(CO)CO)C4=O)ccc21", "Staphylococcus aureus", 64],
  ["O=C1c2cccc3c(N/N=C/c4ccc(F)cc4F)ccc(c23)C(=O)N1C(CO)CO", "Staphylococcus aureus", 128]
]}

Prompt: Returns the measured MIC for the input molecule. Input: O=C(O)c1cn(C2CC2)c2cc(N3CCNCC3)c(F)cc2c1=O
Completion: 4

Prompt: # get_value(readout='MIC', item= O=C1c2cccc3c(N/N=C/c4ccc(O)c([N+](=O)[O-])c4)ccc(c23)C(=O)N1C(CO)CO )
Completion: 64

###

Tested on: Acinetobacter baumannii
Experiment: Antibacterial activity against Acinetobacter baumannii measured by Muller-Hinton broth based microdilution assay
Type: functional
Items are presented alongside their recorded MIC.
Report only the number, with the unit µg/mL understood.

{"columns": ["substanceSmiles", "observedResult"],
 "data": [
  ["O=C1c2cccc3c(N/N=C/c4cc(=O)oc5cc(O)ccc45)ccc(c23)C(=O)N1C(CO)CO", 64],
  ["COc1ccc(/C=N/Nc2ccc3c4c(cccc24)C(=O)N(C(CO)CO)C3=O)cc1", 64]
]}

Prompt: Endpoint output: MIC of O=C1c2cccc3c(N/N=C/c4cccc(O)c4)ccc(c23)C(=O)N1C(CO)CO . Value?
Completion: 256

###

Test system: Staphylococcus aureus
Assay: Antibacterial activity against methicillin-resistant Staphylococcus aureus N315 measured by Muller-Hinton broth based microdilution assay
Format: functional
MIC less than 60 µg/mL is condition met; MIC greater than or equal to 60 µg/mL is condition not met.

Below, 5 compounds whose answers are already recorded.
{"columns": ["substanceSmiles", "class"],
 "data": [
  ["O=C(Cn1cc(/C=N/Nc2ccc3c4c(cccc24)C(=O)N(C(CO)CO)C3=O)c2ccccc21)N1CCOCC1", "condition not met"],
  ["C=CCn1cc(/C=N/Nc2ccc3c4c(cccc24)C(=O)N(C(CO)CO)C3=O)c2ccccc21", "condition not met"],
  ["CCCCc1nc(Cl)c(/C=N/Nc2ccc3c4c(cccc24)C(=O)N(C(CO)CO)C3=O)[nH]1", "condition not met"],
  ["O=C1c2cccc3c(N/N=C/c4csc5ccccc45)ccc(c23)C(=O)N1C(CO)CO", "condition not met"],
  ["O=C1c2cccc3c(N/N=C/c4cccs4)ccc(c23)C(=O)N1C(CO)CO", "condition met"]
]}

Prompt: Check if MIC falls below 60 µg/mL for CCn1cc(/C=N/Nc2ccc3c4c(cccc24)C(=O)N(C(CO)CO)C3=O)c2ccccc21 .
Completion: condition not met

Prompt: is_below(MIC, 60 µg/mL) for O=C1c2cccc3c(N/N=C/c4ccc(O)cc4O)ccc(c23)C(=O)N1C(CO)CO ?
Completion: condition met

Prompt: In the record for O=C1c2cccc3c(N/N=C/c4ccncc4)ccc(c23)C(=O)N1C(CO)CO , is MIC less than 60 µg/mL?
Completion: condition not met

###

Test system: Escherichia coli
Assay: Antibacterial activity against Escherichia coli ATCC 25922 measured by Muller-Hinton broth based microdilution assay
Type: functional
measuredQuantity: MIC

{"columns": ["substanceSmiles", "measuredQuantity", "observedResult"],
 "data": [
  ["O=C1c2cccc3c(N/N=C/c4ccncc4)ccc(c23)C(=O)N1C(CO)CO", "MIC", "64 µg/mL"]
]}

Prompt: Look up MIC for this molecule: O=C1c2cccc3c(N/N=C/c4ccc(OC(F)(F)F)cc4)ccc(c23)C(=O)N1C(CO)CO
Completion: 32 µg/mL

Prompt: Please look up its MIC: O=C1c2cccc3c(N/N=C/c4ccc(O)c(Cl)c4)ccc(c23)C(=O)N1C(CO)CO
Completion: 64 µg/mL

###

Test system: Escherichia coli
Experiment: Antibacterial activity against Escherichia coli ATCC 25922 measured by Muller-Hinton broth based microdilution assay
Type: functional
measuredQuantity: MIC (µg/mL)
Give your result in µg/mL as a bare value.

// solved cases for MIC follow
{"columns": ["substanceSmiles", "testedOn", "measurementUnits", "MIC"],
 "data": [
  ["O=C1c2cccc3c(N/N=C/c4cccc(F)c4)ccc(c23)C(=O)N1C(CO)CO", "Escherichia coli", "µg/mL", 64],
  ["O=C1c2cccc3c(N/N=C/c4cccc(O)c4)ccc(c23)C(=O)N1C(CO)CO", "Escherichia coli", "µg/mL", 256],
  ["O=C1c2cccc3c(N/N=C/c4nc5ccccc5[nH]4)ccc(c23)C(=O)N1C(CO)CO", "Escherichia coli", "µg/mL", 32]
]}

Prompt: # MIC lookup, item O=C1c2cccc3c(N/N=C/c4cccs4)ccc(c23)C(=O)N1C(CO)CO
Completion: 32

Prompt: Fill blank: measured MIC of the compound CCCCCCCCCCn1cc(/C=N/Nc2ccc3c4c(cccc24)C(=O)N(C(CO)CO)C3=O)c2ccccc21 is ____.
Completion: 32

Prompt: Requested read-out: MIC. Entry: CCCCCCCCn1cc(/C=N/Nc2ccc3c4c(cccc24)C(=O)N(C(CO)CO)C3=O)c2ccccc21
Completion: 128

###

Quick reference for MIC among some compounds
Test system: Acinetobacter baumannii
Test: Antibacterial activity against Acinetobacter baumannii measured by Muller-Hinton broth based microdilution assay
Assay type: functional
Numbers only; they are read as µg/mL.

Here's what some known entries look like.
{"columns": ["substanceSmiles", "MIC, µg/mL"],
 "data": [
  ["CCCCc1nc(Cl)c(/C=N/Nc2ccc3c4c(cccc24)C(=O)N(C(CO)CO)C3=O)[nH]1", 64],
  ["O=C(O)c1cn(C2CC2)c2cc(N3CCNCC3)c(F)cc2c1=O", 2],
  ["CCn1cc(C(=O)O)c(=O)c2cc(F)c(N3CCNCC3)cc21", 1]
]}

# next compound below
Prompt: Name the reported MIC value associated with the compound CCCCCCCCCCn1cc(/C=N/Nc2ccc3c4c(cccc24)C(=O)N(C(CO)CO)C3=O)c2ccccc21
Completion: 64

###

Collected MIC values appear next to each entry.
Test system: Staphylococcus aureus
Assay: Antibacterial activity against methicillin-resistant Staphylococcus aureus N315 measured by Muller-Hinton broth based microdilution assay
Assay type: functional
The reply should contain only the number, in mg/L.

Some molecules with known MIC results, for comparison:
{"columns": ["molecule", "measuredQuantity", "measurementUnits", "observedResult"],
 "data": [
  ["O=C1c2cccc3c(N/N=C/c4ccc(Cl)cc4Cl)ccc(c23)C(=O)N1C(CO)CO", "MIC", "mg/L", 32],
  ["O=C1c2cccc3c(N/N=C/c4nccs4)ccc(c23)C(=O)N1C(CO)CO", "MIC", "mg/L", 32],
  ["O=C1c2cccc3c(N/N=C/c4ccccc4O)ccc(c23)C(=O)N1C(CO)CO", "MIC", "mg/L", 2],
  ["CCOC(=O)Cn1cc(/C=N/Nc2ccc3c4c(cccc24)C(=O)N(C(CO)CO)C3=O)c2ccccc21", "MIC", "mg/L", 16],
  ["COc1cc(/C=N/Nc2ccc3c4c(cccc24)C(=O)N(C(CO)CO)C3=O)ccc1O", "MIC", "mg/L", 64]
]}

Prompt: # input molecule: O=C1c2cccc3c(N/N=C/c4cccc(O)c4)ccc(c23)C(=O)N1C(CO)CO ; wanted: its MIC
Completion: 128

Prompt: Return reported MIC; argument: O=C1c2cccc3c(N/N=C/c4ccco4)ccc(c23)C(=O)N1C(CO)CO
Completion: 32

Prompt: Need MIC of O=C1c2cccc3c(N/N=C/c4ccc(O)c(O)c4O)ccc(c23)C(=O)N1C(CO)CO , thanks.
Completion: 16

Prompt: Need MIC of O=C1c2cccc3c(N/N=C/c4ncc[nH]4)ccc(c23)C(=O)N1C(CO)CO , thanks.
Completion: 64

Prompt: Can you look up the measured MIC of O=C1c2cccc3c(N/N=C/c4nc5ccccc5[nH]4)ccc(c23)C(=O)N1C(CO)CO for me?
Completion: 64

Prompt: Endpoint output: MIC of O=C1c2cccc3c(N/N=C/c4ccccc4F)ccc(c23)C(=O)N1C(CO)CO . Value?
Completion: 32

###

System: Staphylococcus aureus
Assay: Antibacterial activity against methicillin-resistant Staphylococcus aureus N315 measured by Muller-Hinton broth based microdilution assay
Type: functional
Exam item: assign Condition met to entries whose MIC is below 60 µg/mL and Condition not met to entries at or above 60 µg/mL. Note that a value of exactly 60 µg/mL receives Condition not met.

{"columns": ["substanceSmiles", "class"],
 "data": [
  ["N#Cc1ccc(/C=N/Nc2ccc3c4c(cccc24)C(=O)N(C(CO)CO)C3=O)cc1", "Condition met"],
  ["O=C1c2cccc3c(N/N=C/c4ccc(O)c(Cl)c4)ccc(c23)C(=O)N1C(CO)CO", "Condition not met"],
  ["O=C1c2cccc3c(N/N=C/c4ccc(OC(F)(F)F)cc4)ccc(c23)C(=O)N1C(CO)CO", "Condition met"],
  ["O=C1c2cccc3c(N/N=C/c4ccc(F)cc4)ccc(c23)C(=O)N1C(CO)CO", "Condition not met"],
  ["O=C1c2cccc3c(N/N=C/c4cccc(Cl)c4)ccc(c23)C(=O)N1C(CO)CO", "Condition not met"],
  ["COc1ccc(/C=N/Nc2ccc3c4c(cccc24)C(=O)N(C(CO)CO)C3=O)cc1", "Condition not met"]
]}

Prompt: Answer whether the compound O=C1c2cccc3c(N/N=C/c4ccc5ccccc5c4)ccc(c23)C(=O)N1C(CO)CO has MIC strictly less than 60 µg/mL
Completion: Condition not met

Prompt: Criterion: MIC strictly below 60 µg/mL. Is it met by O=C1c2cccc3c(N/N=C/c4ccccc4Cl)ccc(c23)C(=O)N1C(CO)CO ?
Completion: Condition not met

Prompt: Is it true that MIC reported for CCn1cc(C(=O)O)c(=O)c2cc(F)c(N3CCNCC3)cc21 is less than 60 µg/mL?
Completion: Condition met

Prompt: is_below(MIC, 60 µg/mL) for CCCCCCCCn1cc(/C=N/Nc2ccc3c4c(cccc24)C(=O)N(C(CO)CO)C3=O)c2ccccc21 ?
Completion: Condition not met

Prompt: Is the reported MIC for O=C1c2cccc3c(N/N=C/c4ccc([N+](=O)[O-])cc4)ccc(c23)C(=O)N1C(CO)CO strictly below 60 µg/mL?
Completion: Condition not met

Prompt: Report whether reported MIC is lower than 60 µg/mL (strictly) for CCCCCCCCCCn1cc(/C=N/Nc2ccc3c4c(cccc24)C(=O)N(C(CO)CO)C3=O)c2ccccc21
Completion: Condition not met

Prompt: API: query returns whether the compound falls strictly under 60 µg/mL in MIC. Query: C#CCn1cc(/C=N/Nc2ccc3c4c(cccc24)C(=O)N(C(CO)CO)C3=O)c2ccccc21
Completion: Condition met

Prompt: Dear reviewer, please state whether O=C1c2cccc3c(N/N=C/c4ccc5ccccc5n4)ccc(c23)C(=O)N1C(CO)CO has MIC strictly beneath 60 µg/mL.
Completion: Condition met

Prompt: Is MIC of CCCCCCCCCCCCn1cc(/C=N/Nc2ccc3c4c(cccc24)C(=O)N(C(CO)CO)C3=O)c2ccccc21 strictly below 60 µg/mL?
Completion: Condition not met
